Assay: Pharmacokinetic studies in male CD-1 mice (plasma, IV and PO)
Assay type: in vivo, mouse
Details: male, CD-1, plasma; mouse, PO 20 mg/kg vs IV 2 mg/kg
metricName: bioavailability (%)

compound="CO[C@@H]1C[C@H](C[C@@H](C)[C@@H]2CC[C@H](C)/C=C(\\C)[C@@H](O)[C@@H](OC)C(=O)[C@H](C)C[C@H](C)/C=C/C=C/C=C(\\C)C(Nc3cnon3)C[C@@H]3CC[C@@H](C)[C@@](O)(O3)C(=O)C(=O)N3CCCCC3C(=O)O2)CC[C@H]1O (some centres unmarked) [Compound 45]" metricname=bioavailability unitofmeasure=% measuredvalue=17
compound="CO[C@@H]1CC(C[C@@H](C)[C@@H]2CC[C@H](C)/C=C(\\C)[C@@H](O)[C@@H](OC)C(=O)[C@H](C)C[C@H](C)/C=C/C=C/C=C(\\C)C(Nc3ccccc3)CC3CC[C@@H](C)[C@@](O)(O3)C(=O)C(=O)N3CCCC[C@H]3C(=O)O2)CC[C@H]1O (some centres unmarked) [Compound 26]" metricname=bioavailability unitofmeasure=% measuredvalue=28.5

Values were extracted from patent US20240360153A1.
